Target: Neprilysin (Homo sapiens, UniProt P08473)
Sequence (P08473 whole entry): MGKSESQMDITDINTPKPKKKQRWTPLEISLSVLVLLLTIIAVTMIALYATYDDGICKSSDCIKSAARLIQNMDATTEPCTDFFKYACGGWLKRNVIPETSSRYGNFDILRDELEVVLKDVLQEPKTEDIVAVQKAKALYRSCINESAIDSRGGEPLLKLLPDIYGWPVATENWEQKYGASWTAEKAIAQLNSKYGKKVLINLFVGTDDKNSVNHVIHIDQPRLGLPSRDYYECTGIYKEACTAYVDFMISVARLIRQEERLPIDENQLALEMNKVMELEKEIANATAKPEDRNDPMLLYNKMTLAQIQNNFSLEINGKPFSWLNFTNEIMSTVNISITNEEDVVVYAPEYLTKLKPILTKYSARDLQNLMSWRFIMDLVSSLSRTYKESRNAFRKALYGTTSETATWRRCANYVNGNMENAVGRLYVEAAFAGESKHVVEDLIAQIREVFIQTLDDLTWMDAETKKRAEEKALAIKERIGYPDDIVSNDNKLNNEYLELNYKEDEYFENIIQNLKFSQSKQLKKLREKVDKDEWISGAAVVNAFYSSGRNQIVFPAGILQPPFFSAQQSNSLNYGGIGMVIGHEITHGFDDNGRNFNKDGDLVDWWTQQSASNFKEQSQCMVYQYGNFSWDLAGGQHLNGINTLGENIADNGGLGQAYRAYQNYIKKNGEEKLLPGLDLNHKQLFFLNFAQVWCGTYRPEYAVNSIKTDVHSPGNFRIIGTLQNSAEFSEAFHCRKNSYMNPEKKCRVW
Test: Inhibition constant determined for neutral endopeptidase (NEP)
endpoint.label: Ki (µM)
Answer format: numeric, µM implied, no suffix.

Lookup: Give the measured Ki of N#CCC(=O)CC(Cc1ccccc1)C(=O)NC(Cc1ccccc1)C(=O)O (stereo unspecified) .
Found: 14

* * *

Target: Neprilysin (Homo sapiens, UniProt P08473)
Assay: Inhibition constant determined for Neutral endopeptidase (NEP)
endpoint.label: Ki (µM)
I only need the number, in µM, no unit after it.

Lookup: Consider the compound shown here: N#CCC(=O)NC(Cc1ccccc1)C(=O)NC(Cc1ccccc1)C(=O)O (stereo unspecified) What is its recorded Ki?
Found: 17

* * *

Target: Angiotensin-converting enzyme (Rattus norvegicus)
Sequence (P47820 whole entry): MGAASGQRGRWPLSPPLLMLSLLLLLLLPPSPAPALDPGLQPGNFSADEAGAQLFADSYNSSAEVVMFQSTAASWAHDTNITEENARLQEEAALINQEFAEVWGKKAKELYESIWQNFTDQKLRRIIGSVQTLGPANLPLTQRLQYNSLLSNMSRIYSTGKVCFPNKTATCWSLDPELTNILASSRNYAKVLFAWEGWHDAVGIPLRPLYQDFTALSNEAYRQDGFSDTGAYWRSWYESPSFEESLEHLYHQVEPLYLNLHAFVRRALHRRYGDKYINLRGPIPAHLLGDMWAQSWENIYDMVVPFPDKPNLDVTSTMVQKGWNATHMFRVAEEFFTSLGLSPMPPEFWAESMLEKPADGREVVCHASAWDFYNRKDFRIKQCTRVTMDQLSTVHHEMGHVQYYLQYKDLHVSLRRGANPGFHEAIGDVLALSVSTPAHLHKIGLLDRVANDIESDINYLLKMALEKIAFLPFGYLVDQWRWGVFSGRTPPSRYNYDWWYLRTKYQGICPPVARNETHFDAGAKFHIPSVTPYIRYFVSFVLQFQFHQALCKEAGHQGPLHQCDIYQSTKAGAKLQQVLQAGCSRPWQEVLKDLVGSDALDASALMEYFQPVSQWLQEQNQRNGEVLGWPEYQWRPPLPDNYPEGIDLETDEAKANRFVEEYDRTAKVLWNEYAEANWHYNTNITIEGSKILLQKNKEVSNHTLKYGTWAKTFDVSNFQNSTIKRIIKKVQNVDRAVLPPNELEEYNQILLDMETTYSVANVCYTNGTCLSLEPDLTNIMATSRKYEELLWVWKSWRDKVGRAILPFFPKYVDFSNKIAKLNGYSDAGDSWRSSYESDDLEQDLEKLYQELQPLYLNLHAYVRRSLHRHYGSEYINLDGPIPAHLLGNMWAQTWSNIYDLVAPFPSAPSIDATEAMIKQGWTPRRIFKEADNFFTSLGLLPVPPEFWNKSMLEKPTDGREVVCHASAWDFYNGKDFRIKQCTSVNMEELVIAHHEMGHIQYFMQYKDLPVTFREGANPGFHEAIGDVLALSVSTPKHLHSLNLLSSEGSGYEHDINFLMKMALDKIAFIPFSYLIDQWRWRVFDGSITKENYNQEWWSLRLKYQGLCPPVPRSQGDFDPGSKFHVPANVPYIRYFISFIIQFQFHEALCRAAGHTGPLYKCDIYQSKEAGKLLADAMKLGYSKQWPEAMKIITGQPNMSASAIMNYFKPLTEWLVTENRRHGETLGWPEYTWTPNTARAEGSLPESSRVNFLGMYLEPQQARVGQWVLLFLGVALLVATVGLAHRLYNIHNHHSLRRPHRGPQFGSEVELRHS
Assay: Inhibition constant determined for Angiotensin I converting enzyme
endpoint.label: Ki (µM)
Give just the numeric value; µM need not be written.

Lookup: Endpoint output: Ki of N#CCC(=O)NC(Cc1ccccc1)C(=O)NC(Cc1ccccc1)C(=O)O (stereo unspecified) . Value?
Found: 65

* * *

Target: Angiotensin-converting enzyme (Rattus norvegicus)
Assay: Inhibition constant determined for angiotensin converting enzyme (ACE)
endpoint.label: Ki

Lookup: Item N#CCC(=O)CC(Cc1ccccc1)C(=O)NC(Cc1ccccc1)C(=O)O (stereo unspecified) with Angiotensin-converting enzyme (Rattus norvegicus) - Ki?
Found: > 10 mM
